Hi there, I'd appreciate the recorded pIC50 for every entry that follows.
# Target system: serotonin transporter (Rattus norvegicus)
# Construct: from tissue
# Sequence (P31652 whole entry): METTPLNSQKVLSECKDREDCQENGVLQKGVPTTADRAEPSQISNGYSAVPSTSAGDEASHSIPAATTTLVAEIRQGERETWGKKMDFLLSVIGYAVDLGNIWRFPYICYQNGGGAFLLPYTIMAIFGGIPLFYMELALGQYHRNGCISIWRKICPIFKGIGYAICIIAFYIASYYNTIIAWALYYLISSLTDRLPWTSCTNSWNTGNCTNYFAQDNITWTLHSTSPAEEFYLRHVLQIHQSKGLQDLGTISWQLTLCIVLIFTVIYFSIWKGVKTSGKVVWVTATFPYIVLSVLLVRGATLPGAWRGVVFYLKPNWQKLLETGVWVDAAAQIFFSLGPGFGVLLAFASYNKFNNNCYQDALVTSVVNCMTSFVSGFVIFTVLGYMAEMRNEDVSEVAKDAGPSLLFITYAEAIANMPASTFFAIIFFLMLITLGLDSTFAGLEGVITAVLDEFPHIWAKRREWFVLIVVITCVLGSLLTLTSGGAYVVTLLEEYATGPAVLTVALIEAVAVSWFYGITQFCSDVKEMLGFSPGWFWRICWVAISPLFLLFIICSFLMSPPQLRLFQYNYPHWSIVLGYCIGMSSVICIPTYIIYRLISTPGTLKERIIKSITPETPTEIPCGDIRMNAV
# Protocol notes: Inhibition of [3H]paroxetine radioligand binding at the serotonin transporter
# Setup conditions: 5-HT IC50 for inhibition of radioligand binding, 5-HT=[3H] paroxetine
Structures can show the parent of a compound that is named as a salt.
By convention, pIC50 is the negative base-10 log of a molar concentration.

Supply measured pIC50 of CCc1cc([C@@H]2C3CCC(C[C@@H]2c2ccc(Cl)cc2)N3C)on1 (some centres unmarked) in your reply.
5.51

Supply measured pIC50 of Cc1ccc(C2CC3CCC(C2CN(C)C)N3C)cc1 (centres unmarked) in your reply.
6.68

Supply measured pIC50 of COC(=O)[C@@H]1C2CCC(C[C@@H]1c1ccc3ccccc3c1)N2C (some centres unmarked) in your reply.
9.10

Supply measured pIC50 of CC(C)OC(=O)C1C2CCC(CC1c1ccc(I)cc1)N2 (centres unmarked) in your reply.
8.44

Supply measured pIC50 of Cc1ccc(-c2cc([C@@H]3C4CCC(C[C@@H]3c3ccc(Cl)cc3)N4C)on2)cc1 (some centres unmarked) in your reply.
5.24

Supply measured pIC50 of CCc1ccc(C2CC3CCC(C2C(=O)OC)N3C)cc1I (centres unmarked) in your reply.
8.53

Supply measured pIC50 of COC(=O)[C@@H]1C2CCC(C[C@@H]1c1ccc(Cl)c(Cl)c1)N2C (some centres unmarked) in your reply.
8.50

Supply measured pIC50 of Fc1ccc(C2CC3CCC(N3)C2COc2ccc3c(c2)OCO3)cc1 (centres unmarked) in your reply.
8.25

Supply measured pIC50 of CCOC(=O)CN1C2CCC1C(C(=O)OC)C(c1ccc(Cl)cc1)C2 (centres unmarked) in your reply.
8.00

Supply measured pIC50 of CN1C2CCC1C(C(=O)Oc1ccccc1)C(c1ccc(Cl)cc1)C2 (centres unmarked) in your reply.
6.73

Supply measured pIC50 of Cc1ccc([C@H]2C[C@@H]3CC[C@H]([C@H]2c2nnc(-c4ccccc4)s2)N3C)cc1 [RTI-4229-199, Hydrochloride] in your reply.
4.29

Supply measured pIC50 of Cc1noc(C2C(c3ccc(Cl)cc3)CC3CCC2N3C)n1 (centres unmarked) in your reply.
5.59

Supply measured pIC50 of CC(C)c1noc(C2C(c3ccc(Cl)cc3)CC3CCC2N3C)n1 (centres unmarked) in your reply.
5.46

Supply measured pIC50 of COC(=O)C1C(c2ccc(C)c(I)c2)CC2CCC1N2C (centres unmarked) in your reply.
8.17

Supply measured pIC50 of COC(=O)C1CN2C3CCC2C(C1=O)C(c1ccc(Cl)cc1)C3 (centres unmarked) in your reply.
6.64

Supply measured pIC50 of "COC(=O)[C@H]1[C@@H](c2ccc(C#Cc3ccccc3)cc2)C[C@@H]2CC[C@H]1N2C" in your reply.
7.33

Supply measured pIC50 of CN1C2CCC1C(c1nc(-c3ccc(Br)cc3)no1)C(c1ccc(Cl)cc1)C2 (centres unmarked) in your reply.
6.97

Supply measured pIC50 of Cc1noc(C2C(c3ccccc3)CC3CCC2N3C)n1 (centres unmarked) [RTI-4229-126] in your reply.
5.42

Supply measured pIC50 of CCc1ccc(C2CC3CCC(N3)C2C(=O)OCc2ccccc2)cc1 (centres unmarked) in your reply.
8.13

Supply measured pIC50 of CN1[C@H]2CC[C@@H]1[C@@H](c1cc(-c3ccccc3)no1)[C@@H](c1ccc(Cl)cc1)C2 [RTI-4229-177, Hydrochloride] in your reply.
5.62

Supply measured pIC50 of Cc1ccc([C@H]2C[C@@H]3CC[C@H]([C@H]2c2nnc(-c4ccccc4)o2)N3C)cc1 [RTI-4229-195, Hydrochloride] in your reply.
4.65

Supply measured pIC50 of COc1ccc(-c2noc(C3C(c4ccc(Cl)cc4)CC4CCC3N4C)n2)cc1 (centres unmarked) in your reply.
6.47

Supply measured pIC50 of COC(=O)C1C(c2ccc(F)cc2)CC2CCC1N2C (centres unmarked) in your reply.
5.30

Supply measured pIC50 of COC(=O)C1C(c2ccc3ccccc3c2)CC2CCC1N2C (centres unmarked) in your reply.
7.94

Supply measured pIC50 of COC(=O)OCC1C(c2ccc(Cl)cc2)CC2CCC1N2C (centres unmarked) in your reply.
5.53

Supply measured pIC50 of CN1[C@H]2CC[C@@H]1[C@@H](c1cc(-c3ccccc3)no1)[C@@H](c1ccc(I)cc1)C2 [RTI-4229-181, Hydrochloride] in your reply.
7.00

Supply measured pIC50 of CCc1ccc(C2CC3CCC(C2C(=O)OC)N3C)cc1 (centres unmarked) in your reply.
5.77

Supply measured pIC50 of CN1C2CCC1C(C(=O)Oc1ccccc1)C(c1ccc([N+](=O)[O-])cc1)C2 (centres unmarked) in your reply.
5.54

Supply measured pIC50 of Cc1ccc(C2CC3CCC([C@H]2C(=O)OC2CCC2)N3C)cc1 (some centres unmarked) in your reply.
5.69

Supply measured pIC50 of COC(=O)CCN1C2CCC1C(C(=O)OC)C(c1ccc(Cl)cc1)C2 (centres unmarked) in your reply.
7.45

Supply measured pIC50 of Cc1ccc(C2CC3CCC(C2c2ccccc2)N3C)cc1 (centres unmarked) in your reply.
5.96

Supply measured pIC50 of C/C=C\c1ccc(C2C[C@H]3CCC(C2C(=O)OC)N3C)cc1 (some centres unmarked) in your reply.
8.15

Supply measured pIC50 of CN1C2CCC1[C@@H](CCl)[C@@H](c1ccc(Cl)cc1)C2 (some centres unmarked) in your reply.
7.01

Supply measured pIC50 of COC(=O)C1C2CCC(CC1c1ccc(C)cc1)N2 (centres unmarked) in your reply.
8.80
